These data points were gathered from the supplement of paper PMC10567573.

B1: SAT2 (parent)
chain: IIKKVAEVALDKGCSQFRLAVLDW

Variants of: B1
PROTOCOL: protein stability index of a GFP-peptide fusion (GPS, HEK-293T) (PSI 1-6); higher = more stable;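 also: lentivirally expressed fusions sorted by FACS into six bins by GFP to DsRed ratio, PSI derived from sequencing read proportions per bin multiplied by bin number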
TEST_CONDITIONS: c terminus: a fixed tail appended
// map protein stability index to label using low group = under 2, middle group = from 2 up to 3, high group = 3 and over

Examples with answers:
- IFKKVAEVALDKGCSQFRLAVLDW [I2F]: high group
- IIKKVAEVALDKGCSQFRLAVLDP [W24P]: low group

**Query** Class (by measured protein stability index) for IIKKVAEVALDKGCSQFRLAVPDW [L22P]
**Result** middle group

**Query** Class (by measured protein stability index) for IIKKVNEVALDKGCSQFRLAVLDW [A6N]
**Result** middle group

**Query** Class (by measured protein stability index) for IIKKVAEVALDKGCSWFRLAVLDW [Q16W]
**Result** low group

**Query** Class (by measured protein stability index) for INKKVAEVALDKGCSQFRLAVLDW [I2N]
**Result** middle group

**Query** Class (by measured protein stability index) for IIKPVAEVALDKGCSQFRLAVLDW [K4P]
**Result** low group

**Query** Class (by measured protein stability index) for IHKKVAEVALDKGCSQFRLAVLDW [I2H]
**Result** low group

**Query** Class (by measured protein stability index) for IIKWVAEVALDKGCSQFRLAVLDW [K4W]
**Result** high group

**Query** Class (by measured protein stability index) for IIKKVAEVALDKGCSQFRLAVLVW [D23V]
**Result** middle group

**Query** Class (by measured protein stability index) for IIKKVAEVMLDKGCSQFRLAVLDW [A9M]
**Result** middle group

**Query** Class (by measured protein stability index) for DIKKVAEVALDKGCSQFRLAVLDW [I1D]
**Result** middle group

**Query** Class (by measured protein stability index) for IIKKVAEEALDKGCSQFRLAVLDW [V8E]
**Result** low group
